target: human GPBAR1 receptor (Homo sapiens); construct: expressed in transfected cells; test: functional cAMP assay in CHO-dhfr(minus) cells expressing human GPBAR1 receptors; type: cell-based; conditions: human EC50, functional cAMP assay, 30 min at 30° C.
Sequence (Q8TDU6 whole entry): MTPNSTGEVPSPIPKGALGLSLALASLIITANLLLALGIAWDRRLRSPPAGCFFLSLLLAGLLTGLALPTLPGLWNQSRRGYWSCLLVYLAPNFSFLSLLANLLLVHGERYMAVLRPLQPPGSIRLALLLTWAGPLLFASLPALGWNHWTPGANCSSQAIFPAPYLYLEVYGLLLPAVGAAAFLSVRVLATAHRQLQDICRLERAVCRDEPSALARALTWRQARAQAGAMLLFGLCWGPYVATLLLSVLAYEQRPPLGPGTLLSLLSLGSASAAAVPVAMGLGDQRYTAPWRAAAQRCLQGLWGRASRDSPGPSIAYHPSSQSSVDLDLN
pEC50: −log10 of the molar value.
ENDPOINT_LABEL: pEC50

Take a look at these entries with their results.
O/N=C(\CC(c1ccccc1)c1ccc(-c2cncnc2)cc1)c1ccncc1 (stereo not drawn) [Example 22]    7.48
Cn1cc(/C(CC(c2ccc(Br)cc2)c2ccc(Cl)cc2F)=N/O)ccc1=O (stereo not drawn) [Example 237]    7.60

I = Cc1ccccc1C(CC(=NO)c1ccncc1)c1cccc(-c2cccc(S(C)(=O)=O)c2)c1 (racemic) [Example 30]
II = Cc1cc(/C(CC(c2ccc(C(=O)N3CCN(S(C)(=O)=O)CC3)cc2)c2ccc(F)cc2F)=N/O)ccn1 (stereo not drawn) [Example 439]
(Q) Parameter check: reported pEC50 is higher for which label, I or II ? I would appreciate it if you answered with the label of your choice.
(A) II

Reference for the values: patent US8765730B2
